# System: K-562 leukemia
# experimentNotes: NCI-60 one-dose screen, 48 h (100 = growth as untreated, 0 = no growth, -100 = all killed)
# testSettings: 10 µM unless noted
The panel holds about 83,000 compounds, 20% with a hit somewhere; the sample as a whole holds those more often.
readoutName: growth (%)
// units = %; emit number, no label

For orientation, consider the following solved cases.
compound	growth [%]
COC(=O)[C@]12CC[C@@H](C)[C@H](C)[C@@H]1C1=CC[C@@H]3[C@@]4(C)C=C(O)C(=O)[C@@]5(C)COC(=C54)C[C@@]3(C)[C@]1(C)CC2	-97.8
COc1ccc(C2=NN(C(C)=O)C(c3cc(OC)c(OC)c(OC)c3)C2)cc1 (centres undefined)	75.4
COc1ccc(-c2cncn2-c2ccc(-c3nc4cc(OC)c(OC)c(OC)c4s3)cc2)cc1N	41

In one line, give reported growth of the entry COc1ccc2[nH]cc(/C=C3/C(=O)Nc4ccc(Cl)cc43)c2c1 . 27.4

Tell me its growth given CC[N+](CC)(CCOCCOCC[N+](CC)(CC)Cc1ccc([N+](=O)[O-])cc1)Cc1ccc([N+](=O)[O-])cc1 as the entry. 98
